Target: T1, hRET.mFc (human)
T1 construct: also called dimeric human RET
Test: SPR Biacore T200, mAb capture, 25 C
RECORDED_METRIC: t½ (h)
Numeric answer only, unit h assumed.

For orientation, consider the following solved cases.
{"BINDER": "H4H8071P (antibody, human IgG4, V domains shown, human IgG4 Fc (H4H prefix)) VH: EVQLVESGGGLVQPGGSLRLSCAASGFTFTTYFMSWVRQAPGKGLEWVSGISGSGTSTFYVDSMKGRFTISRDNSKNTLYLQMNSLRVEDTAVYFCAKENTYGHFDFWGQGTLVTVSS VL: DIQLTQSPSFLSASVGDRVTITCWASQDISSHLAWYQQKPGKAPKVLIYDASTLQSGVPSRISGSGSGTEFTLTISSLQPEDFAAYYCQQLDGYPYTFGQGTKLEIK", "t½, h": 1.08}
{"BINDER": "H4H8085P (antibody, human IgG4, V domains shown, human IgG4 Fc (H4H prefix)) VH: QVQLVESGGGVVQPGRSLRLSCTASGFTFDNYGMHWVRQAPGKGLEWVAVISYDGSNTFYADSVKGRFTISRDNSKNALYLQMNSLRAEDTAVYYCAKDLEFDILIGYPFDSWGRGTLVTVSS VL: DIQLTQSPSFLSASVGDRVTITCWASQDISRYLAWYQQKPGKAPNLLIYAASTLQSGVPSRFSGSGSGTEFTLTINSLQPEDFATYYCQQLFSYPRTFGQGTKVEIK", "t½, h": 1.53}

Shift focus to the following entry.
Prompt line: Determine from records and report t½ for H4H8083P (antibody, human IgG4, V domains shown, human IgG4 Fc (H4H prefix)) VH: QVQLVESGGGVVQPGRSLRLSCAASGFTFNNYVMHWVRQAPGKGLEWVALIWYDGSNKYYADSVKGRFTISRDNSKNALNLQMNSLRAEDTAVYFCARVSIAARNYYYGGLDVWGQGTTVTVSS VL: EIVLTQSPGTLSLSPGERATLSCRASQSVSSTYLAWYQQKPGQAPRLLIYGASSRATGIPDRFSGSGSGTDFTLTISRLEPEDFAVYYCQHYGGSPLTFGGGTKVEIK
Response line: 0.867
